- experimental-system: Bile acid receptor (Homo sapiens) (UniProt Q96RI1)
- Sequence (Q96RI1 whole entry, the tested form may be a part): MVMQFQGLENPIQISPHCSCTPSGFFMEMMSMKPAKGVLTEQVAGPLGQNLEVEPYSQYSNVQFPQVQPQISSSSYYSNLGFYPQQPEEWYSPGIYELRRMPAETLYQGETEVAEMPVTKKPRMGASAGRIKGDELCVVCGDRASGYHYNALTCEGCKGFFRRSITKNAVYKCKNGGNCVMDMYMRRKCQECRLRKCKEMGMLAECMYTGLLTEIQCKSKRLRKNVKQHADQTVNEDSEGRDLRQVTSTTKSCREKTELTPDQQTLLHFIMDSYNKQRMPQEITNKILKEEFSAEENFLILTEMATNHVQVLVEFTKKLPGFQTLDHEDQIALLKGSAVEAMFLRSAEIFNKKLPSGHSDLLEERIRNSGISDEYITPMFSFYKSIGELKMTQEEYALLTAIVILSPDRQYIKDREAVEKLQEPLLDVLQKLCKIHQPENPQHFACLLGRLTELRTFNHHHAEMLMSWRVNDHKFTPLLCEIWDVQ
- method-notes: Agonist activity at human GST-fused FXR LBD assessed as cofactor peptide interaction with receptor ligand binding domain by FRET assay relative to GW-4064
experimental-endpoint: Efficacy (%)
Provide only the numeric value, understood in %.

Worked set:
>>> number("O=C(O)c1ccc(OCc2ccc(OCc3c(-c4c(Cl)cccc4Cl)noc3C3CC3)nc2C(F)(F)F)cc1")
86
>>> number("CC(C)c1onc(-c2c(Cl)cccc2Cl)c1COc1ccc(N(C)Cc2ccc(C(=O)O)cc2)c(C(F)(F)F)n1")
97
>>> number("CC(C)c1onc(-c2c(Cl)cccc2Cl)c1COc1ccc(N(C)C(=O)c2ccc(C(=O)O)cc2)c(C(F)(F)F)n1")
101

Could you now look at the following compound, please?
Query the reported Efficacy for Bile acid receptor (Homo sapiens) (UniProt Q96RI1); item: CC(c1ccc(OCc2c(-c3c(Cl)cccc3Cl)noc2C2CC2)nc1C(F)(F)F)N(C)c1ccc(C(=O)O)cc1 (centres undefined) 102

###

- experimental-system: Bile acid receptor (Homo sapiens)
- Sequence (Q96RI1 whole entry, the tested form may be a part): as above
- method-notes: Agonist activity at human […] FXR LBD expressed in HEK293 cells coexpressing GAL4-DNA bindig domain and pFRluc by mammalian one-hybrid assay
- Assay type: functional, cell-based
- study-conditions: read-out: EC50
Lab note: compare EC50 with 200 nM, writing criterion met if less and criterion not met if equal or more.

Below, 8 molecules whose answers are already recorded.
>>> label_class("Cc1cc(OCc2c(-c3c(Cl)cccc3Cl)noc2C(C)C)nc2ccccc12")
"criterion not met"
>>> label_class("Cc1cc(OCc2c(-c3c(Cl)cccc3Cl)[n-][o+]c2C(C)C)ncc1[N+](=O)[O-]")
"criterion not met"
>>> label_class("CC(C)c1onc(-c2c(Cl)cccc2Cl)c1COc1ccc(N(C)Cc2cccc(C(=O)NCCOP(=O)(O)O)c2)c(C(F)(F)F)n1")
"criterion not met"
>>> label_class("CC(C)c1onc(-c2c(Cl)cccc2Cl)c1COc1ccc(N(C)Cc2ccc(C(=O)NS(C)(=O)=O)cc2)c(C(F)(F)F)n1")
"criterion not met"
>>> label_class("CC(C)c1onc(-c2c(Cl)cccc2Cl)c1COc1ccc(N(C)Cc2ccc(C(=O)O)cc2)c(C(F)(F)F)n1")
"criterion met"
>>> label_class("CC(C)c1onc(-c2c(Cl)cccc2Cl)c1COc1cnc(N(C)Cc2ccc(C(=O)O)cc2)c(Cl)c1")
"criterion met"
>>> label_class("O=C(O)c1ccc(OCc2ccc(OCc3c(-c4c(Cl)cccc4Cl)noc3C3CC3)nc2C(F)(F)F)cc1")
"criterion met"
>>> label_class("CC(C)c1onc(-c2c(Cl)cccc2Cl)c1COc1ccc(N(C)Cc2ccc(OCC(=O)O)cc2)c(C(F)(F)F)n1")
"criterion not met"

Please let me know if "CC(C)c1onc(-c2c(Cl)cccc2Cl)c1COc1ccc(N(C)Cc2ccc(CCC(=O)O)cc2)c(C(F)(F)F)n1" shows EC50 below 200 nM. criterion met

For "CN(Cc1cccc(C(=O)O)c1)c1ccc(OCc2c(-c3c(Cl)cccc3Cl)noc2C2CC2)nc1C(F)(F)F" , is the recorded EC50 below the cut-off of 200 nM? criterion met

Given "CC(C)c1onc(-c2c(Cl)cccc2Cl)c1COc1ccc(NCc2ccc(C(=O)O)cc2)c(C(F)(F)F)n1" , is recorded EC50 strictly lower than 200 nM? criterion not met

I wonder whether "CCN(Cc1ccc(C(=O)O)cc1)c1ccc(OCc2c(-c3c(Cl)cccc3Cl)noc2C2CC2)nc1C(F)(F)F" has EC50 below 200 nM. Can you tell? criterion met
